Assay: NCI Yeast Anticancer Drug Screen. Data for the rad50EPP+ strain (AID 151)
Details: S. cerevisiae rad50 mutant strain, at 100.0 µM
Experimental: Growth inhibition of yeast strains with defined genetic alterations is measured as a screen for potential anti-cancer activity. Selected strains with alterations in DNA damage repair or cell cycle control were exposed to compounds and growth inhibition was measured relative to vehicle treated controls. The strain used in this assay is rad50EPP+
The panel holds about 79,000 compounds, 15% with a hit somewhere; the sample as a whole holds those more often. Calls of active or inactive are those of the source. Cut-off read from the data, not from the text of the source: active = growth inhibition above about 70%; inactive = the rest. Starred links: 1 amine or outer side, 2 acyl side, 3 side chain; linkers in the order of their positions; H or OH if unused. Positions of bridges follow the written chain, without caps; N, C: chain ends. Non-standard residues stand in square brackets, D forms with d. Residues, ends and D or L forms follow the SMILES beside them. Chains are numbered I, II in the order given. Actinocin(9to1) = Cc1c2oc3c(C)ccc(C(=O)[*:1])c3nc-2c(C(=O)[*:2])c(N)c1=O; aThr = C[C@H](O)[C@H](N)C(=O)O; NMeV = CN[C@H](C(=O)O)C(C)C; Sar = CNCC(=O)O
Hi there, use one of these labels in your reply, thanks! active, inactive

Solved entries (count: 3):
Cc1ccc(SSc2ccc(C)cc2[N+](=O)[O-])c([N+](=O)[O-])c1: active
Cc1c2oc3c(C)ccc(C(=O)N[C@@H]4C(=O)N[C@H](C(C)C)C(=O)N5CCC[C@H]5C(=O)N(C)CC(=O)N(C)[C@@H](C(C)C)C(=O)O[C@H]4C)c3nc-2c(C(=O)N[C@@H]2C(=O)N[C@H](C(C)C)C(=O)N3CCC[C@H]3C(=O)N(C)CC(=O)N(C)[C@@H](C(C)C)C(=O)O[C@H]2C)c(N)c1=O (I: [aThr][dV]P[Sar][NMeV] / II: [aThr][dV]P[Sar][NMeV]; ester I:1-I:C, II:1-II:C; linker I:N-II:N via Actinocin(9to1)): active
Cc1nc2ccc(NCCN(C)C)c3c(=O)c4ccccc4n1c23: inactive

Assay result, entry O=c1c(Br)cc2c(-c3ccccc3)c3cc(Br)c(O)c(Br)c3oc-2c1Br — outcome? inactive

Assay result, entry CN1CCN(c2ccc3nc(-c4ccc5nc(-c6ccc(O)cc6)[nH]c5c4)[nH]c3c2)CC1 — outcome? active

Assay result, entry O=C(Cc1ccccc1F)NC1=C(Cl)C(=O)c2ccccc2C1=O — outcome? inactive

Assay result, entry O=C1OC(c2ccc(Cl)cc2)Sc2ccccc21 (configuration not stated) — outcome? inactive

Attribution: PubChem BioAssay (NCI)
